For each record, write down the corresponding GI50.
System: SNB-19
Assay: NCI tumour cell line growth inhibition, 48 h
The source made the active and inactive calls. Cut-off read from the data, not from the text of the source: active = GI50 up to about 1.1 µM and inactive = higher.

Using the record for N#CC(C#N)=C1C(C#N)=C(N)NC12OCCO2 , report its GI50.
> 100 µM (inactive)

Using the record for CCC(C)C1NC(=O)C(NC(=O)C(CC(C)C)N(C)C(=O)[C@@H]2CC(O)CN2C(=O)[C@H](C)O)C(C)OC(=O)[C@H](Cc2ccc(OC)cc2)N(C)C(=O)[C@@H]2CCCN2C(=O)[C@H](CC(C)C)NC(=O)C(C)C(=O)[C@H](C(C)C)OC(=O)CC1O (stereo partly drawn) , report its GI50.
0.164 µM (active)

Using the record for CC(SC1=CC(=O)c2c(O)ccc(O)c2C1=O)C(=O)O (stereo not drawn) , report its GI50.
> 100 µM (inactive)
